# assayedSystem: human Claudin-6 (CLDN6) (human) (UniProt P56747)
# methodSummary: FACS, limiting dilution, OV90 cells
We begin with a simple list: items and their reported FACS signal at 40 nM.

binder	measurementKind	resultValue
AB S11 (antibody, V domains shown) VH: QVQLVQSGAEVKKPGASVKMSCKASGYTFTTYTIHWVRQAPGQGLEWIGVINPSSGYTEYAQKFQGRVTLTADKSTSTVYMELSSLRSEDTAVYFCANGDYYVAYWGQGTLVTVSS VL: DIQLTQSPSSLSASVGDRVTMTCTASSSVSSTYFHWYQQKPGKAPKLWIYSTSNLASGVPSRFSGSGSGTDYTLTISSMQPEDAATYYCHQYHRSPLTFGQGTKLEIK	FACS signal at 40 nM	44900
AB S12 (antibody, V domains shown) VH: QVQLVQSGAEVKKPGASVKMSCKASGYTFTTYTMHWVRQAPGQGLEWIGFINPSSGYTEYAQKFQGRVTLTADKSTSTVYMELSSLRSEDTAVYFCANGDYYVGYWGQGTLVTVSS VL: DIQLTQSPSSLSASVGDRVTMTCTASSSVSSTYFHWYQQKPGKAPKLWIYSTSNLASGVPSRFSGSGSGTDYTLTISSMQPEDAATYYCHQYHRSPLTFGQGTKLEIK	FACS signal at 40 nM	14600
AB S7 (antibody, V domains shown) VH: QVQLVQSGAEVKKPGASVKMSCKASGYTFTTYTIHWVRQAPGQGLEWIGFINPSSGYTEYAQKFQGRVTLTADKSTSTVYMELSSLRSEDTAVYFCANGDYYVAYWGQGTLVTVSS VL: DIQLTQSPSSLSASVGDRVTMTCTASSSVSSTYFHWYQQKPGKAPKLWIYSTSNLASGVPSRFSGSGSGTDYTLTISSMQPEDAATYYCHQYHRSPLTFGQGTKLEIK	FACS signal at 40 nM	8570
AB S4 (antibody, V domains shown) VH: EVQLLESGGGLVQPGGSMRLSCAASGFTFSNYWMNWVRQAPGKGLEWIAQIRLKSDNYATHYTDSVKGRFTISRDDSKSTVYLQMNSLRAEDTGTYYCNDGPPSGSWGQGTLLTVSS VL: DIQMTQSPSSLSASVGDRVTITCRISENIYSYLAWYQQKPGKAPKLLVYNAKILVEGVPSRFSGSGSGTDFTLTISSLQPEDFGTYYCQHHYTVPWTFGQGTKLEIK	FACS signal at 40 nM	4590
AB S8 (antibody, V domains shown) VH: QVQLVQSGAEVKKPGASVKMSCKASGYTFTTYTMHWVRQAPGQGLEWIGVINPSSGYTEYAQKFQGRVTLTADKSTSTVYMELSSLRSEDTAVYFCANGDYYVGYWGQGTLVTVSS VL: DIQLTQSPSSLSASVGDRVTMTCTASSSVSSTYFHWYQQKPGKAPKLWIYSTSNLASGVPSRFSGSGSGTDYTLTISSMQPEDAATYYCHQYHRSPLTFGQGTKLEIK	FACS signal at 40 nM	85900

Sample AB S10 (antibody, V domains shown) VH: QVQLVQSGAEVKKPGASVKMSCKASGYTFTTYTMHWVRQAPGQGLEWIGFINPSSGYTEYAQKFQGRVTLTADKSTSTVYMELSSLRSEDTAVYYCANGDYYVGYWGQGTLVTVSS VL: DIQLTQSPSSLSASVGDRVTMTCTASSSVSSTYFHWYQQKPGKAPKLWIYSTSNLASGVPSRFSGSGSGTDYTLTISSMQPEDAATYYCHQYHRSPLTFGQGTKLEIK ; FACS signal at 40 nM observed: 50400

Sample AB S2 (antibody, V domains shown) VH: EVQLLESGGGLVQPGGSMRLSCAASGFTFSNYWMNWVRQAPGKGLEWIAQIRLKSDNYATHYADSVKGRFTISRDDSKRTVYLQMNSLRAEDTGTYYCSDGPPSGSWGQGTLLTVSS VL: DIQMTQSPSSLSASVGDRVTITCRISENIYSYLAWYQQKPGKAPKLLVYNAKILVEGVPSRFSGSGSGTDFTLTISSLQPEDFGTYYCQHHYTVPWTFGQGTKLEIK ; FACS signal at 40 nM observed: 18100

Sample AB1-11 (antibody, V domains shown, humanized; also called humanized AB1-11; HU-11) VH: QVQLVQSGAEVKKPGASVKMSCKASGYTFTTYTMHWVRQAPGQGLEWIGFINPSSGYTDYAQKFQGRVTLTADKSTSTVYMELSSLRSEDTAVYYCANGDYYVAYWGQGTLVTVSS VL: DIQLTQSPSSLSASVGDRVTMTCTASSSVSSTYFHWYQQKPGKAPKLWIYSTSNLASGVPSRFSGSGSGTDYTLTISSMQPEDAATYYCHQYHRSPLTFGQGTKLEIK ; FACS signal at 40 nM observed: 7820

Sample AB S3 (antibody, V domains shown) VH: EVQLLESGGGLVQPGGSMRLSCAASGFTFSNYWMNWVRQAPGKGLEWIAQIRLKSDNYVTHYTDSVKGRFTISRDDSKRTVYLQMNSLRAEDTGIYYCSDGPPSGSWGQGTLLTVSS VL: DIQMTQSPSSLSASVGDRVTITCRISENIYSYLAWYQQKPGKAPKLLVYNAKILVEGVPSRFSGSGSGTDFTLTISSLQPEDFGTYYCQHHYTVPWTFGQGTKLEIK ; FACS signal at 40 nM observed: 19500

Sample AB S5 (antibody, V domains shown) VH: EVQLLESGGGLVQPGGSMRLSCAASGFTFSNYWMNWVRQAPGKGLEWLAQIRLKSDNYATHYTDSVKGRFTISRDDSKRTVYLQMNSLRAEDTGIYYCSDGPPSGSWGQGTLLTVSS VL: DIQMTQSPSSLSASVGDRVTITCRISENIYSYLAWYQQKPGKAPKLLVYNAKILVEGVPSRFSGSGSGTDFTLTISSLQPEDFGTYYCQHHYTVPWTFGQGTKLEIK ; FACS signal at 40 nM observed: 22500

Sample AB3-7 (antibody, V domains shown, humanized; also called AB23; humanized AB3-7) VH: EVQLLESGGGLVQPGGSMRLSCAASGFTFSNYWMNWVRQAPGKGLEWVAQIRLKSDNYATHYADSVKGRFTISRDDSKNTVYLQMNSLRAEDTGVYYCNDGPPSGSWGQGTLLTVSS VL: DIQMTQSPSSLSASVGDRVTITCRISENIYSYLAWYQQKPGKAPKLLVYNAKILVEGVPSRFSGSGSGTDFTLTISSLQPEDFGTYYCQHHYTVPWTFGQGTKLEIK ; FACS signal at 40 nM observed: 1140
